# test summary: yeast display, Sf9 membrane polyspecificity reagent, FACS + sequencing; frameworks hold sequencing errors
assay endpoint: polyreactivity (PSR sort gate)

Please review the entries below; each comes with its answer.
QVQLVESGGGLVHAGGSLRLSCAAYGFIFYDYVMGWYRQAPGKERELVAAITGSGGGTYYADSVKGRFTISRDNAKNTVYLQMNSLKPDATAVYYCAADFISVYGYEYYYWGQVTQVTVSS: high polyreactivity
QVQLVESVGGLVQAGGSLRLSCAASGRIFSVYTMGWYRQAPGKERELVAAISSGASTNYADSVKGRFTISRDNAKNTVYLQMNSLKPEDTAVYYCNAQWYLRLGASKTWVDVDYWGQGTQVTVSS: low polyreactivity
PLQLVESGGGLVQAGGSLRLSCAASGTIFVQTDRGWYRQAPGKERELVAAISSGSSTNYADSVNGRFTISRDNAKNTVYLQMNSLKPEDSAAYYCAVTSPYSQGYSYWGADSRDYWGQGTQVTVSS: low polyreactivity
QVQLVESGGGLVQAGGSLRLSCAASGFIFTGNVMGWYRQAPGKERELVAAIRWSGGRTYYADSVKGRFTISRDNAKNTVYLQMNSLKPEDTAVYYCNALGRVQGYKPGGLDYWGQGTQVTVSS: high polyreactivity

With those in mind, consider the next sequence.
Enquiry: State, in one line, measured polyreactivity (PSR sort gate) of QVQLVESGGGLVQAGGSLRLSCAASGITFSYNAMGWYRPAPGKERELVAAISSNSDSTYYADSVKGRFTISRDNAKNTVYLQMNSLKPEDTAVYYCAADTPDAPDYSGFYYWGQGTQVTVSS
Return: low polyreactivity
